assay: chemical genetic growth profiling, strain panel (AID 1159580);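 further: tested at 20 µM; growth read once vehicle control cultures reached saturation at 30 °C; 1 = growth at the plate median or of vehicle wells; lower values mean less growth of the strain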; conditions: S. cerevisiae deletion strains, growth OD, locus YFR010W, strain ubp6, hits give low values
The campaign covered roughly 5,500 compounds. About 2,000 (36%) were called active. Not shown: some 18% with an inconclusive outcome. The list shows a part of the results.
Entries and their normalized growth

Please review the following examples before continuing.
Molecule | Recorded Endpoint | Value Observed
CCN(CC)CCNc1ccc(CO)c2sc3ccccc3c(=O)c12 | normalized growth | 0.999 (inactive)
S=c1ccss1 | normalized growth | 0.839 (active)
COc1c(O)cc2c(-c3ccccc3)cc(=O)oc2c1OC | normalized growth | 1.02 (inactive)
O=c1cc(-c2cccc(O)c2)oc2ccc(O)cc12 | normalized growth | 0.962 (inactive)
O=C1CCc2cc(OCCCCc3nnnn3C3CCCCC3)ccc2N1 | normalized growth | 0.991 (inactive)

Qu. Given `COc1cc([C@@H]2c3cc4c(cc3[C@H](OC(C)=O)[C@H]3COC(=O)[C@H]23)OCO4)cc(OC)c1OC` , state its recorded normalized growth.
Ans. 1 (inactive)

Qu. Given `N[C@H](CO)Cc1ccccc1` , state its recorded normalized growth.
Ans. 1.04 (inactive)

Qu. Given C=CCc1ccccc1OCC(O)CNC(C)C (stereo not drawn) , state its recorded normalized growth.
Ans. 1 (inactive)

Qu. Given `O=c1cc(-c2ccc(O)c(O)c2)oc2ccccc12` , state its recorded normalized growth.
Ans. 0.947 (inactive)

Qu. Given CC1(C)O[C@@H]2CC3C4C[C@H](F)C5=CC(=O)C=CC5(C)C4C(O)CC3(C)[C@]2(C(=O)CO)O1 (stereo partly drawn) , state its recorded normalized growth.
Ans. 1.01 (inactive)

Qu. Given CCOC(=O)C1C(C=C(C)C)C1(C)C (stereo not drawn) , state its recorded normalized growth.
Ans. 1 (inactive)

Qu. Given `O=c1cc(-c2ccc(O)cc2)oc2ccc(O)cc12` , state its recorded normalized growth.
Ans. 0.938 (inactive)

Qu. Given `COc1c(O)cccc1O` , state its recorded normalized growth.
Ans. 1.03 (inactive)

----------
test: chemical genetic growth profiling, strain panel (AID 1159580); conditions: S. cerevisiae deletion strains, growth OD, locus YMR231W, strain pep5, hits give low values
Hit rate of the full screen: of about 5,500 compounds, about 2,000 (36%) were called active. About 18% were inconclusive and are not listed. Some of the results follow.
Recorded Endpoint: normalized growth
Number only, no unit.

Please review the following examples before continuing.
Compound | normalized growth
CC(=O)O[C@@H]1CC2C(C)(C)CCC(=O)[C@]2(C)C2CC[C@@]3(C)[C@H](c4ccoc4)OC(=O)C4OC43[C@@]21C (some centres undefined) | 0.97
COc1ccc(-c2cc(=O)c3c(OC)c(OC)c(OC)c(OC)c3o2)cc1 | 1.01
CC(=O)O[C@H]1C[C@@H](O)C(C)(C)C2C[C@@H](OC(C)=O)[C@]3(C)C(CC[C@@]4(C)[C@H](c5ccoc5)OC(=O)C5OC543)[C@]21C (some centres undefined) | 0.988

# input for lookup
Qu. Given CC(=O)O[C@@H]1CC2C(C)(C)C(=O)CC[C@]2(C)C2CC[C@@]3(C)[C@H](c4ccoc4)OC(=O)C4OC43[C@@]21C (some centres undefined) , state its recorded normalized growth.
Ans. 0.966

----------
experiment: chemical genetic growth profiling, strain panel (AID 1159580); settings: S. cerevisiae deletion strains, growth OD, locus YDR137W, strain rgp1, hits give low values
In all, about 5,500 compounds went through this assay and about 2,000 (36%) were called active. Another 18% or so got no clear call; they are omitted. This is one part of the list.
Entries and their normalized growth
Number only, no unit.

Please review the following examples before continuing.
Molecule | Value Observed
CC1=C2C(=CO[C@H](C)[C@H]2C)C(=O)C(C(=O)O)=C1O | 0.912
Cc1cc2cc3c(C)cc(=O)oc3c(C)c2o1 | 1.03
O=C1CN2Cc3c(ccc(Cl)c3Cl)N=C2N1 | 0.962
Nc1nnc(-c2cccc(Cl)c2Cl)c(N)n1 | 1.02
COc1cc([C@@H]2c3cc4c(cc3[C@H](OC(C)=O)[C@H]3COC(=O)[C@H]23)OCO4)cc(OC)c1OC | 0.884
C=C1C(N)CC2CC1C2(C)C (configuration not stated) | 1

# input for lookup
Qu. Given `COc1ccc(-c2cc(=O)c3ccccc3o2)cc1` , state its recorded normalized growth.
Ans. 0.53

----------
assay: chemical genetic growth profiling, strain panel (AID 1159580); settings: S. cerevisiae deletion strains, growth OD, locus YMR129W, hits give low values
The whole screen tested about 5,500 compounds, of which about 2,000 (36%) were called active. About 18% were inconclusive and are not listed. This is one part of the list.
Recorded Endpoint: normalized growth
Number only, no unit.

Please review the following examples before continuing.
Compound | normalized growth
CC(=O)Oc1cc(-c2coc3cc(OC(C)=O)c(OC(C)=O)c(OC(C)=O)c3c2=O)cc(OC(C)=O)c1OC(C)=O | 0.98
CC[C@]12C=CCN3CC[C@@]4(c5ccc(OC)cc5N(C)C4[C@@](O)(C(=O)OC)[C@@H]1OC(C)=O)[C@@H]32 (stereo not given in full) | 1
CC(=O)Nc1ccc(O)cc1 | 1.01
CC(=O)Oc1ccc(-c2cc(=O)c3c(OC(C)=O)cc(OC(C)=O)cc3o2)cc1 | 0.967

Qu. Given CN1CCOC(c2ccccc2)c2ccccc2C1 (stereo not given) , state its recorded normalized growth.
Ans. 0.999

----------
test: chemical genetic growth profiling, strain panel (AID 1159580);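 further: tested at 20 µM; growth read once vehicle control cultures reached saturation at 30 °C; 1 = growth at the plate median or of vehicle wells; lower values mean less growth of the strain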; settings: S. cerevisiae deletion strains, growth OD, locus YLL026W, hits give low values
Hit rate of the full screen: of about 5,500 compounds, about 2,000 (36%) were called active. Another 18% or so got no clear call; they are omitted. Some of the results follow.
Entries and their normalized growth
Number only, no unit.

Please review the following examples before continuing.
Molecule | normalized growth
CC(=O)[C@H]1CCC2C3CC=C4C[C@@H](OC(=O)CCC(=O)O)CC[C@]4(C)C3CC[C@@]21C (some centres undefined) | 0.974
CCn1cc(C(=O)O)c(=O)c2cc(F)c(N3CCNCC3)cc21 | 0.992
CCN1CCN(c2cc3c(cc2F)c(=O)c(C(=O)O)cn3C2CC2)CC1 | 1
CCCCOc1cc(CC2CNC(=O)N2)ccc1OC (centres undefined) | 0.998
CC(C)(C)C(=O)C(Oc1ccc(Cl)cc1)n1cncn1 (centres undefined) | 0.0984

Qu. Given CC(=O)[C@H]1CCC2C3CC=C4C[C@@H](O)CC[C@]4(C)C3CC[C@@]21C (some centres undefined) , state its recorded normalized growth.
Ans. 0.912

Qu. Given `O=C(/C=C/c1ccccc1)c1ccc(O)cc1` , state its recorded normalized growth.
Ans. 0.173

----------
assay: chemical genetic growth profiling, strain panel (AID 1159580);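 further: tested at 20 µM; growth read once vehicle control cultures reached saturation at 30 °C; 1 = growth at the plate median or of vehicle wells; lower values mean less growth of the strain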; conditions: S. cerevisiae deletion strains, growth OD, locus YDR502C, strain sam2
About 2,000 (36%) of roughly 5,500 compounds were called active. Inconclusive results (about 18%) are left out. No stated cut-off is given here; in the data, active means normalized growth mostly below about 0.91 (no sharp cut-off); inconclusive means no clear call, values can overlap the other calls; inactive means mostly above about 0.92. The list shows a part of the results.
Lab note: assign the record to one of active, inactive

Solved cases below.
Molecule | Classification
CC(N)Cc1ccc(O)cc1 (centres undefined) | inactive
CC(=O)N(O)CCCCCNC(=O)CCC(=O)N(O)CCCCCNC(=O)CCC(=O)N(O)CCCCCN | inactive
CCCCC1C(=O)N(c2ccccc2)N(c2ccccc2)C1=O | inactive
CC(=O)Nc1ccc(O)cc1 | inactive
Nc1ccc(C(=O)O)c(O)c1 (tested in a mixture with another compound) | inactive

Qu. What is the recorded call for this molecule in the test? `NCCc1ccc(O)c(O)c1`
Ans. inactive

Qu. What is the recorded call for this molecule in the test? `COc1ccc(-c2cc(=O)c3cc(OC)ccc3o2)cc1`
Ans. inactive

Qu. What is the recorded call for this molecule in the test? C=CCCCCCCCCCCCC(O)CC(O)CO (centres undefined) (tested in a mixture with another compound)
Ans. active

Qu. What is the recorded call for this molecule in the test? `CC(=O)Nc1cccc(O)c1`
Ans. inactive

----------
assay: chemical genetic growth profiling, strain panel (AID 1159580);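 further: tested at 20 µM; growth read once vehicle control cultures reached saturation at 30 °C; 1 = growth at the plate median or of vehicle wells; lower values mean less growth of the strain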; settings: S. cerevisiae deletion strains, growth OD, locus YJL134W, strain LCB3
Out of some 5,500 compounds screened, about 2,000 (36%) were called active. Another 18% or so got no clear call; they are omitted. No stated cut-off is given here; in the data, active means normalized growth mostly below about 0.91 (no sharp cut-off); inconclusive means no clear call, values can overlap the other calls; inactive means mostly above about 0.92. The list shows a part of the results.
Lab note: assign the record to one of active, inactive

Solved cases below.
Compound | Classification
O=c1c2ccccc2[se]n1-c1ccccc1 | active
CNCCC=C1c2ccccc2CCc2ccccc21 | inactive
O=c1[nH]c2cc(Cl)c(Cl)cc2[nH]c1=O | inactive
COc1cccc(-c2cc(=O)c3ccc(OC)cc3o2)c1 | inactive
CN(C)CCC=C1c2ccccc2C=Cc2ccccc21 | inactive

Qu. What is the recorded call for this compound in the test? C#CCOS(=O)OC1CCCCC1Oc1ccc(C(C)(C)C)cc1 (configuration not stated)
Ans. inactive

Qu. What is the recorded call for this compound in the test? COC(=O)C[C@H]1C(C)(C)C(=O)[C@@H]2CC3=C4CC(OC)O[C@@H](c5ccoc5)[C@]4(C)CCC3[C@@]1(C)C2=O (some centres not stated)
Ans. inactive

Qu. What is the recorded call for this compound in the test? CCC1C2CC3C4N(C)c5ccccc5C45CC(C2C5OC(C)=O)N3C1OC(C)=O (configuration not stated)
Ans. inactive

Qu. What is the recorded call for this compound in the test? `CC(=O)Oc1cc(-c2coc3cc(OC(C)=O)c(OC(C)=O)c(OC(C)=O)c3c2=O)cc(OC(C)=O)c1OC(C)=O`
Ans. inactive

Qu. What is the recorded call for this compound in the test? `CN(N=O)C(=O)N[C@@H]1[C@@H](O)[C@H](O)[C@@H](CO)O[C@@H]1O`
Ans. inactive

Qu. What is the recorded call for this compound in the test? `O=C(O)c1nc2cc(Cl)c(Cl)cc2[nH]c1=O`
Ans. inactive

Qu. What is the recorded call for this compound in the test? OC1C(O)C(O)C(O)C(O)C1O (configuration not stated)
Ans. inactive
